Where do these numbers come from? They come from PubChem BioAssay (NCI).

- Tested on: NCI-H23 lung
- ASSAY_OVERVIEW: NCI tumour cell line growth inhibition, 48 h; in the data active means GI50 below about 0.43 µM; inactive means the rest
Output constraint: value belongs to Y = active, N = inactive

SMILES_REPRESENTATION: Fc1ccc(-c2ccc(-c3nnc(-c4cc(F)c(Cl)cc4Cl)o3)o2)cc1Cl
TARGET_ENTITY: NCI-H23 lung
ASSIGNED_CATEGORY: N

Here is the next item to consider.
What outcome does the record of this test show for `COc1cc(/C=C/C(=O)c2ccc(Cl)cc2)ccc1OS(=O)(=O)c1ccc(C)cc1` ?
N

====

- System: SK-OV-3 ovarian
- ASSAY_OVERVIEW: NCI tumour cell line growth inhibition, 48 h
For each entry below, report its TGI value.
Numbers only, in µM.

Solved entries (count: 3):
SMILES_REPRESENTATION: C=C(C)[C@@H]1CC[C@]2(C(=O)O)CC[C@]3(C)[C@H](CC[C@@H]4[C@@]5(C)CC[C@H](C(=O)/C=C/c6ccc(O)cc6)C(C)(C)[C@@H]5CC[C@]43C)[C@@H]12
TARGET_ENTITY: SK-OV-3 ovarian
MEASUREMENT_UNIT: µM
VALUE_REPORTED: 36.3

SMILES_REPRESENTATION: COc1cccc(-c2nc3c(C(=O)NCCN(C)C)cccc3[nH]2)c1
TARGET_ENTITY: SK-OV-3 ovarian
MEASUREMENT_UNIT: µM
VALUE_REPORTED: 69.5

SMILES_REPRESENTATION: COC(=O)/C(=C\c1c(C)[nH]c2ccccc12)S(=O)(=O)c1ccccc1
TARGET_ENTITY: SK-OV-3 ovarian
MEASUREMENT_UNIT: µM
VALUE_REPORTED: 41.4

Please give measured TGI of the following entry: `CCN(CC)Cc1cc(Nc2c3ccccc3nc3c2[nH]c2ccccc23)ccc1O`
6.83

====

- System: OVCAR-3 ovarian
- ASSAY_OVERVIEW: NCI tumour cell line growth inhibition, 48 h; in the data active means GI50 below about 0.43 µM; inactive means the rest
Output constraint: value belongs to label 1 for active, label 0 for inactive

What outcome does the record of this test show for `O=C(Nc1ncc(Cc2ccccc2Cl)s1)c1ccc2c(c1)OCCO2` ?
label 1

What outcome does the record of this test show for `CN(C)CCCNC(=O)c1cc(NC(=O)c2cc(NC(=O)c3cc(NC(=O)CCc4c[nH]c5ccccc45)cn3C)cn2C)cn1C` ?
label 0

What outcome does the record of this test show for `COc1cc(/C=C/C(=O)c2ccc(Cl)cc2)ccc1OS(=O)(=O)c1ccc(C)cc1` ?
label 0

What outcome does the record of this test show for `O=C1c2ccccc2-c2c1c1ccccc1c(=O)n2CCNCCNCCn1c2c(c3ccccc3c1=O)C(=O)c1ccccc1-2` ?
label 0

What outcome does the record of this test show for `CN(C)Cc1ccc(C(=O)Nc2ccc3ncnc(Nc4ccc(Oc5cccc(F)c5)c(Cl)c4)c3c2)cc1` ?
label 0

What outcome does the record of this test show for `OCCCCC#Cc1ccccc1C#Cc1ccccc1C(F)(F)F` ?
label 0

What outcome does the record of this test show for `Cc1[nH]c(/C=C2\C(=O)Nc3ccc(F)cc32)c(C)c1C(=O)NC[C@H](O)CN1CCOCC1` ?
label 0

What outcome does the record of this test show for `Cc1ccc2c(=O)c3cccc(CC(=O)O)c3oc2c1C` ?
label 0

What outcome does the record of this test show for `Cc1cc2c(F)c(Oc3ncnn4cc(OC[C@@H](C)OC(=O)[C@H](C)N)c(C)c34)ccc2[nH]1` ?
label 0

What outcome does the record of this test show for C[C@H]1CCC/C=C/[C@@H]2C[C@H](O)C[C@H]2[C@H](O)[C@@H](S(=O)CCN(C)C)CC(=O)O1 (some centres undefined) ?
label 1

What outcome does the record of this test show for CC(NNC(=S)N1CCCCCC1)c1ccc2ccccc2n1 (centres undefined) ?
label 1

What outcome does the record of this test show for `C[C@]12CC[C@@H]3c4ccc(O)cc4CC[C@H]3[C@@H]1CC[C@@H]2NS(=O)(=O)Cc1ccc(Cl)cc1` ?
label 0

What outcome does the record of this test show for O=C1OC(=O)C2C1C1(c3ccccc3)C(c3ccccc3)=C(c3ccccc3)C2(c2ccccc2)S1=O (centres undefined) ?
label 0

What outcome does the record of this test show for `COc1ccc(/C=C\c2cc(OC)c(OC)c(OC)c2)cc1OCC(=O)Nc1nc2ccc(C(F)(F)F)cc2s1` ?
label 0

====

- Test system: ACHN renal
- ASSAY_OVERVIEW: NCI tumour cell line growth inhibition, 48 h; in the data active = GI50 below about 0.43 µM; inactive = the rest
Output constraint: value belongs to active, inactive

Examples from the recorded data:
SMILES_REPRESENTATION: Oc1cc2cccc[n+]2c2cccc(Cl)c12
TARGET_ENTITY: ACHN renal
ASSIGNED_CATEGORY: inactive

SMILES_REPRESENTATION: CCOC(=O)Oc1c(OC)cc(C(=O)O[C@@H]2C[C@@H]3CN4CCc5c([nH]c6cc(OC)ccc56)[C@H]4C[C@@H]3[C@H](C(=O)OC)[C@H]2OC)cc1OC
TARGET_ENTITY: ACHN renal
ASSIGNED_CATEGORY: inactive

SMILES_REPRESENTATION: O=C([CH-]C(=O)c1ccccc1)c1ccccc1.O=C([CH-]C(=O)c1ccccc1)c1ccccc1.[Nd+3].[OH-].[OH3+]
TARGET_ENTITY: ACHN renal
ASSIGNED_CATEGORY: inactive

SMILES_REPRESENTATION: Cc1ccc2c(=O)c3cccc(CC(=O)O)c3oc2c1C
TARGET_ENTITY: ACHN renal
ASSIGNED_CATEGORY: inactive

SMILES_REPRESENTATION: COc1ccc(/C=C\c2cc(OC)c(OC)c(OC)c2)cc1OCC(=O)Nc1nc2ccc(C(F)(F)F)cc2s1
TARGET_ENTITY: ACHN renal
ASSIGNED_CATEGORY: inactive

SMILES_REPRESENTATION: O=C1c2ccccc2-c2c1c1ccccc1c(=O)n2CCNCCNCCn1c2c(c3ccccc3c1=O)C(=O)c1ccccc1-2
TARGET_ENTITY: ACHN renal
ASSIGNED_CATEGORY: active

SMILES_REPRESENTATION: O=C(Nc1ccc(Cl)cc1)c1cc2ccccc2cc1O
TARGET_ENTITY: ACHN renal
ASSIGNED_CATEGORY: inactive

SMILES_REPRESENTATION: Cc1[nH]c(/C=C2\C(=O)Nc3ccc(F)cc32)c(C)c1C(=O)NC[C@H](O)CN1CCOCC1
TARGET_ENTITY: ACHN renal
ASSIGNED_CATEGORY: inactive

Here is the next item to consider.
What outcome does the record of this test show for `COc1ccc(-c2nc(-c3ccccc3)c(-c3ccccc3)n2C2CC2)cc1OC1CCCC1` ?
inactive

====

- Test system: HOP-62 NSCLC
- ASSAY_OVERVIEW: NCI tumour cell line growth inhibition, 48 h
For each entry below, report its GI50 value.

Solved entries (count: 5):
COMPOUND: COc1nc(C)cc2c(=O)n(-c3ccccc3)n(CCCN3CCN(c4ccc(Cl)cc4)CC3)c(=O)c12
GI50: 24.5 µM

COMPOUND: S=C(N/N=C/c1ccccn1)Nc1ccccn1
GI50: 1.73 µM

COMPOUND: Cc1[nH]c(/C=C2\C(=O)Nc3ccc(F)cc32)c(C)c1C(=O)NC[C@H](O)CN1CCOCC1
GI50: 4.41 µM

COMPOUND: O=C(C(Br)Br)C(Br)C(Br)c1ccccc1 (configuration not stated)
GI50: 2.74 µM

COMPOUND: Nc1ccccc1C#C/C=C\C#Cc1ccc(Cl)cc1Cl
GI50: 16.6 µM

Quick request: GI50 for each listed item, please.
1. S=C(Nc1ccc(Cl)cc1)Nc1ccc(-c2nc3ccccc3[nH]2)cc1
2. OCCCCC#Cc1ccccc1C#Cc1ccccc1C(F)(F)F

1. 15 µM
2. 8.46 µM

====

For each entry below, report its TGI value.
- Test system: EKVX NSCLC
- ASSAY_OVERVIEW: NCI tumour cell line growth inhibition, 48 h

MOLECULE: O=C(Cc1ccccc1)c1ccc2[nH]c(=O)oc2c1
TARGET_ENTITY: EKVX NSCLC
TGI: 64.4 µM
//
MOLECULE: O=S(=O)(O)c1c(N=Nc2c(O)ccc3ccccc23)ccc2ccccc12
TARGET_ENTITY: EKVX NSCLC
TGI: > 100 µM
//
MOLECULE: C=C(CN1CCc2ccccc2C1)c1ccc(C(=O)Nc2ccc(N)cc2)cc1
TARGET_ENTITY: EKVX NSCLC
TGI: > 100 µM
//
MOLECULE: CCCCCCCCCCCCCCCCP(=O)(O)OP(=O)(O)OCC1OC(n2cnc3c(N)ncnc32)C(O)C1O (stereo not given)
TARGET_ENTITY: EKVX NSCLC
TGI: > 100 µM
//
MOLECULE: O=[N+]([O-])C(=C(N1CCOCC1)N1CCOCC1)/C(Cl)=C(\Cl)[N+](=O)[O-]
TARGET_ENTITY: EKVX NSCLC
TGI: 23.2 µM
//
MOLECULE: N#CC12C3C4CC5C6C4C1C6C(O)(C53)N2Cc1ccccc1 (stereo not given)
TARGET_ENTITY: EKVX NSCLC
TGI: > 100 µM
//
MOLECULE: CC(C)(C)[C@H]1CO[C@]2(C)[C@@H]3C[C@@H]3C(=O)N12
TARGET_ENTITY: EKVX NSCLC
TGI: > 100 µM
//
MOLECULE: OC1CC(O)c2c(Cl)sc(Cl)c21 (stereo not given)
TARGET_ENTITY: EKVX NSCLC
TGI: > 100 µM

Quick request: TGI for each listed item, please.
1. O=c1c2cccnc2nc2ccc3c[nH][nH]c3c12
2. COC(=O)N/N=C/c1oc(-c2cccc([N+](=O)[O-])c2)c(-c2cccc([N+](=O)[O-])c2)c1[N+](=O)[O-]

> 10 µM
> 100 µM
